tested on: SVR cells; test: SVR cell assay: cell numbers counted at 48 hours, percent inhibition versus control; type: cell-based, murine; conditions: 3 μg/ml; 10,000 SVR cells in 24 well dish; counted at 48 hours
Assign class by Percent Inhibition at a Specified Density (μg/ml): 3: not lower than 30% means fulfilled; lower than 30% means not fulfilled.

Reference set, count: 4
>>> df
                                   molecule            cat
0  O=C1C(=Cc2ccccc2)CCc2ccccc21 [Compound 68, 2-(Benzylidene)tetralone]      fulfilled
1  O=C(C=Cc1ccco1)c1ccco1 [Compound 43, 1,3-Bis(2-furyl)propenone]  not fulfilled
2  O=C(C=Cc1ccccc1)c1cccc2ccccc12 [Compound 58, 1-(1-Naphthyl)-3-phenylpropenone]      fulfilled
3  O=C(C=Cc1ccccc1)c1ccco1 [Compound 44, 1-(2-Furyl)-3-phenylpropenone]      fulfilled

[in] Item O=C(C=Cc1c2ccccc2cc2ccccc12)c1ccccc1 [Compound 52, 3-(9-Anthryl)-1-phenylpropenone] with Percent Inhibition at a Specified Density (μg/ml): 3 of 30% or above?
[out] fulfilled

[in] Item O=C1C(=Cc2ccccc2)CCC1=Cc1ccccc1 [Compound 4, 2,5-(Dibenzylidene)cyclopentanone] with Percent Inhibition at a Specified Density (μg/ml): 3 of 30% or above?
[out] not fulfilled

[in] Item O=C(C=Cc1cccnc1)c1ccccc1 [Compound 48, 1-Phenyl-3-(3-pyridyl)propenone] with Percent Inhibition at a Specified Density (μg/ml): 3 of 30% or above?
[out] fulfilled

====

tested on: SVR cells; assay: SVR cell assay: cell numbers counted at 48 hours, percent inhibition versus control; assay type: cell-based, murine; conditions: 6 μg/ml; 10,000 SVR cells in 24 well dish; counted at 48 hours
Assign class by Percent Inhibition at a Specified Density (μg/ml): 6: not lower than 50% means criterion met; lower than 50% means criterion not met.

In [3]: df
Out[3]:
                  compound_structure_string                cat
0                    O=C(C=Cc1ccco1)c1ccco1  criterion not met
1  O=C(C=Cc1c2ccccc2cc2ccccc12)c1c2ccccc2cc2ccccc12  criterion not met
2  O=C(C=Cc1ccc2ccccc2c1)c1c2ccccc2cc2ccccc12  criterion not met
3        O=C1C(=Cc2cccc3ccccc23)CCc2ccccc21  criterion not met
4              O=C1C(=Cc2ccccc2)CCc2ccccc21      criterion met
5            O=C(/C(Br)=C/c1ccccc1)c1ccccc1      criterion met
6                  O=C(C=Cc1ccccn1)c1ccccn1      criterion met
7        O=C1C(=Cc2c(Cl)cccc2Cl)CCc2ccccc21      criterion met
8      O=C(C=Cc1c(Cl)cccc1Cl)c1ccc2ccccc2c1      criterion met
9                  O=C(C=Cc1cccnc1)c1ccccc1      criterion met

[in] Item "O=C(C=Cc1ccc2ccccc2c1)c1cccc2ccccc12" with Percent Inhibition at a Specified Density (μg/ml): 6 of 50% or above?
[out] criterion met

[in] Item "O=C(C=Cc1c2ccccc2cc2ccccc12)c1ccccc1" with Percent Inhibition at a Specified Density (μg/ml): 6 of 50% or above?
[out] criterion met

[in] Item "O=C(C=Cc1ccccn1)c1ccccc1" with Percent Inhibition at a Specified Density (μg/ml): 6 of 50% or above?
[out] criterion met

[in] Item "O=C(C=Cc1ccccc1)c1c2ccccc2cc2ccccc12" with Percent Inhibition at a Specified Density (μg/ml): 6 of 50% or above?
[out] criterion met

[in] Item "O=C(C=Cc1ccc2ccccc2c1)c1ccccc1" with Percent Inhibition at a Specified Density (μg/ml): 6 of 50% or above?
[out] criterion not met

The reported measurements were obtained from patent US7432303B2.
